# System: SK-HEP1 (human hepatic cancer cells)
# protocol-text: MTT cytotoxicity assay in SK-HEP1 cells
# Type: cell-based
# conditions-used: 48 hours treatment, read-out: CC50 (50% cytotoxic concentration)
// reported CC50 per item
property: CC50

compound: COc1cccc2c1C(=O)c1c(O)c3c(c(O)c1C2=O)C[C@@](O)(C(=O)CO)C[C@@H]3O[C@H]1C[C@H](N)[C@H](O)[C@H](C)O1 [Dox, Doxorubicin]
result: 9.8 µg/mL
--
compound: C=C1C(=O)O[C@H]2/C=C(\C)C[C@@H]3C=C(CC/C=C(\C)CC[C@H]12)C(=O)O3 [AR100-DS1, ovatodiolide]
result: 49.9 µg/mL
--
compound: C=C1C(=O)O[C@H]2/C=C(\C)C[C@@H]3C=C(CCC4OC4(C)CC[C@H]12)C(=O)O3 (stereo partly shown) [Ova-Oxy]
result: 45.2 µg/mL
--
compound: C/C1=C\CCC2=C[C@@H](C/C(C)=C/[C@@H]3OC(=O)C(CSCCO)[C@H]3CC1)OC2=O (stereo partly shown) [Ova-ST2]
result: > 100 µg/mL

====

# System: A549 (human non-small cell lung cancer cells)
# protocol-text: MTT cytotoxicity assay in A549 cells
# Type: cell-based
# conditions-used: 48 hours treatment, read-out: CC50 (50% cytotoxic concentration)

compound: C=C1C(=O)O[C@H]2/C=C(\C)C[C@@H]3C=C(CCC4OC4(C)CC[C@H]12)C(=O)O3 (stereo partly shown) [Ova-Oxy]
value-units: µg/mL
inequality-operator: =
CC50: 23
//
compound: C=C1C(=O)O[C@H]2/C=C(\C)C[C@@H]3C=C(CC/C=C(\C)CC[C@H]12)C(=O)O3 [AR100-DS1, ovatodiolide]
value-units: µg/mL
inequality-operator: =
CC50: 29.6
//
compound: C/C1=C\CCC2=C[C@@H](C/C(C)=C/[C@@H]3OC(=O)C(CSCCO)[C@H]3CC1)OC2=O (stereo partly shown) [Ova-ST2]
value-units: µg/mL
inequality-operator: >
CC50: 100
//
compound: COc1cccc2c1C(=O)c1c(O)c3c(c(O)c1C2=O)C[C@@](O)(C(=O)CO)C[C@@H]3O[C@H]1C[C@H](N)[C@H](O)[C@H](C)O1 [Dox, Doxorubicin]
value-units: µg/mL
inequality-operator: >
CC50: 10

These entries and their values trace back to patent US20250360100A1.
